TESTED_ON: Factor X, P00742
Sequence (P00742 whole entry, looked up): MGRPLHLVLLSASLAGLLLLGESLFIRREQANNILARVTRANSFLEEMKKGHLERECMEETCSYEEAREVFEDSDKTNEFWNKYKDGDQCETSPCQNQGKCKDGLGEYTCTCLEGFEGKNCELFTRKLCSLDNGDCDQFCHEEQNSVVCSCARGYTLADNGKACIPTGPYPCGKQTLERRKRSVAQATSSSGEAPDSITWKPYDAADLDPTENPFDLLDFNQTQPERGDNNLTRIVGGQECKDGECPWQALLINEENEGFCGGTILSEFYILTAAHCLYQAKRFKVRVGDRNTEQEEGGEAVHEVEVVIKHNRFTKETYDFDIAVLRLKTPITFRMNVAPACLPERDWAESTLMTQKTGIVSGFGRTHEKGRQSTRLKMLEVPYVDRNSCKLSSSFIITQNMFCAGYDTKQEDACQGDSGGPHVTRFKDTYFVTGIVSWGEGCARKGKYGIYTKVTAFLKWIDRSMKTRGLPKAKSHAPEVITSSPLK
Entries and their KM (FX activation by FIXa in Xase complex with FVIIIa, PC/PS vesicles, Ca2+) values follow.
Reply numerically in µM, unit not repeated.

Consider the worked cases shown below.
FIXa R318Y/R338E/T343R/R403E/E410N (protein) chain 1: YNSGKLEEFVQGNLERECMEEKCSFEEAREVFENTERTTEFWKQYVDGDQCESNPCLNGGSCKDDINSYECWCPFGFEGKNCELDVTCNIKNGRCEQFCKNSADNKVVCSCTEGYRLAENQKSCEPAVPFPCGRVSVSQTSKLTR chain 2: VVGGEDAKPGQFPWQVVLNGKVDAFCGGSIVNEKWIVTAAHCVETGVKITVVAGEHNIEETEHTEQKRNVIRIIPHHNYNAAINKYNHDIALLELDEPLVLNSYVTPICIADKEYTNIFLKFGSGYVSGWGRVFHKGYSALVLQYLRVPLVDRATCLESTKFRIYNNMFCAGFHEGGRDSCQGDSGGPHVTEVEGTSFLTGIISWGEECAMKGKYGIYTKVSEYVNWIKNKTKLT = 0.0247
FIXa Y155F/R318Y/T343R/R403E/E410N (protein) chain 1: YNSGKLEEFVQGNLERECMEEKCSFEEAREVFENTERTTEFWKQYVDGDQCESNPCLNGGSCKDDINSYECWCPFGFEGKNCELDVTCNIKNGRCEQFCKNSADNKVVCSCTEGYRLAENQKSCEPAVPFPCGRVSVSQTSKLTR chain 2: VVGGEDAKPGQFPWQVVLNGKVDAFCGGSIVNEKWIVTAAHCVETGVKITVVAGEHNIEETEHTEQKRNVIRIIPHHNYNAAINKYNHDIALLELDEPLVLNSYVTPICIADKEYTNIFLKFGSGYVSGWGRVFHKGYSALVLQYLRVPLVDRATCLRSTKFRIYNNMFCAGFHEGGRDSCQGDSGGPHVTEVEGTSFLTGIISWGEECAMKGKYGIYTKVSEYVNWIKNKTKLT = 0.034

Note down KM (FX activation by FIXa in Xase complex with FVIIIa, PC/PS vesicles, Ca2+) recorded for FIXa D104N/K106S/R318Y/R338E/T343R/R403E/E410N (protein) chain 1: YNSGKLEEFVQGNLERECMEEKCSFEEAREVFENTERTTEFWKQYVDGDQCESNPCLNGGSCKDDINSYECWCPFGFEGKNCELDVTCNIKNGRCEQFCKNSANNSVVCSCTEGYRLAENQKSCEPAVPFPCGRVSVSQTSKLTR chain 2: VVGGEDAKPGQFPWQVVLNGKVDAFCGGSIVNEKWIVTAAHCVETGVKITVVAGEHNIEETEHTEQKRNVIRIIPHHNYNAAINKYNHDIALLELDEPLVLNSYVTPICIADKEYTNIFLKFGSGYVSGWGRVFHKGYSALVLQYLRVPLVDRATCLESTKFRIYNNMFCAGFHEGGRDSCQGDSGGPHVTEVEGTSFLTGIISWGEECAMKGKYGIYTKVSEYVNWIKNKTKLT
0.0266

Name the recorded KM (FX activation by FIXa in Xase complex with FVIIIa, PC/PS vesicles, Ca2+) of the item FIXa D104N/K106S/Y155F/K247N/N249S/N260S (protein) chain 1: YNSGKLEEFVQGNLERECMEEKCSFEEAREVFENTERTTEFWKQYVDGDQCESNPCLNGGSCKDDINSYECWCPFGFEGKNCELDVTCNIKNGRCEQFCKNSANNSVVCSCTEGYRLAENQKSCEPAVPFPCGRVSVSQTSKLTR chain 2: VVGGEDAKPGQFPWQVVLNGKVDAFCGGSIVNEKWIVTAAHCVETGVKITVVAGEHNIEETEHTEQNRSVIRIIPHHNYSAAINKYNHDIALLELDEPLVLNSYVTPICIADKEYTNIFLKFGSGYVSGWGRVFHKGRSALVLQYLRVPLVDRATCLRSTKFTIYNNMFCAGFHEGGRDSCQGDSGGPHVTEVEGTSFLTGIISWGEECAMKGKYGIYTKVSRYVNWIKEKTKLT in your answer.
0.0685

Please supply the value of reported KM (FX activation by FIXa in Xase complex with FVIIIa, PC/PS vesicles, Ca2+) for the item FIXa K247N/N249S/R318Y/R403E/E410N (protein) chain 1: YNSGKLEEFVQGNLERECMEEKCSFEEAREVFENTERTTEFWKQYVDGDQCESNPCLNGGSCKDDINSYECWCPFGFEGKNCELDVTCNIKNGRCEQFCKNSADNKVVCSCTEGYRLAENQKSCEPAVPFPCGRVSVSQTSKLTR chain 2: VVGGEDAKPGQFPWQVVLNGKVDAFCGGSIVNEKWIVTAAHCVETGVKITVVAGEHNIEETEHTEQNRSVIRIIPHHNYNAAINKYNHDIALLELDEPLVLNSYVTPICIADKEYTNIFLKFGSGYVSGWGRVFHKGYSALVLQYLRVPLVDRATCLRSTKFTIYNNMFCAGFHEGGRDSCQGDSGGPHVTEVEGTSFLTGIISWGEECAMKGKYGIYTKVSEYVNWIKNKTKLT
0.111

Kindly indicate its recorded KM (FX activation by FIXa in Xase complex with FVIIIa, PC/PS vesicles, Ca2+). Item: FIXa D104N/K106S/K247N/N249S/N260S (protein) chain 1: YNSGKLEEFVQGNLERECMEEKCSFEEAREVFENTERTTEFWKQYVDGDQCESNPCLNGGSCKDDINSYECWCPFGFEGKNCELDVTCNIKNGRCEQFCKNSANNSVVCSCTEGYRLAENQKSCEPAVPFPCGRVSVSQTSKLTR chain 2: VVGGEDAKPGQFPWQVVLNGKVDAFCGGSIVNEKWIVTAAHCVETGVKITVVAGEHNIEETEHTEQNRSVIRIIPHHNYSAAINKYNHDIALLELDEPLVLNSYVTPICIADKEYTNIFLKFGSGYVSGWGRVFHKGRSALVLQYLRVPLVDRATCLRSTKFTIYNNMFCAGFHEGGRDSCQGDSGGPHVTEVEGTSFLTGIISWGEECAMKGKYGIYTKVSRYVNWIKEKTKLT
0.0612

Let me know recorded KM (FX activation by FIXa in Xase complex with FVIIIa, PC/PS vesicles, Ca2+) for FIXa Y155F/K247N/N249S/R318Y/R403E/E410N (protein) chain 1: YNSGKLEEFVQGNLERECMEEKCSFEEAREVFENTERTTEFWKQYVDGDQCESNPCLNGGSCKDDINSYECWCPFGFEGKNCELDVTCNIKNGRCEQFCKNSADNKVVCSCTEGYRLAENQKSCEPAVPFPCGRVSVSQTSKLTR chain 2: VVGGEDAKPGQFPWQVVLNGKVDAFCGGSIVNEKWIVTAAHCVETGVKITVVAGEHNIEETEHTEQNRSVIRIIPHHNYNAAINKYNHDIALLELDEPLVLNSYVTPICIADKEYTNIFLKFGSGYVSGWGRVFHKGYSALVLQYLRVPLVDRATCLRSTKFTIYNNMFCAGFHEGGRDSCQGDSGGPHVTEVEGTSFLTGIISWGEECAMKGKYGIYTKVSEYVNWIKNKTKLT , thanks.
0.125
